# test system: T1, Purified recombinant human CD26 (rhDipeptidyl peptidase IV), R&D Systems CAT #1180-SE (human, UniProt P27487 29-766)
# T1 construct: Bought recombinant protein; also called hu-CD26; soluble human CD26
# T1 sequence (P27487 29-766 limits assumed): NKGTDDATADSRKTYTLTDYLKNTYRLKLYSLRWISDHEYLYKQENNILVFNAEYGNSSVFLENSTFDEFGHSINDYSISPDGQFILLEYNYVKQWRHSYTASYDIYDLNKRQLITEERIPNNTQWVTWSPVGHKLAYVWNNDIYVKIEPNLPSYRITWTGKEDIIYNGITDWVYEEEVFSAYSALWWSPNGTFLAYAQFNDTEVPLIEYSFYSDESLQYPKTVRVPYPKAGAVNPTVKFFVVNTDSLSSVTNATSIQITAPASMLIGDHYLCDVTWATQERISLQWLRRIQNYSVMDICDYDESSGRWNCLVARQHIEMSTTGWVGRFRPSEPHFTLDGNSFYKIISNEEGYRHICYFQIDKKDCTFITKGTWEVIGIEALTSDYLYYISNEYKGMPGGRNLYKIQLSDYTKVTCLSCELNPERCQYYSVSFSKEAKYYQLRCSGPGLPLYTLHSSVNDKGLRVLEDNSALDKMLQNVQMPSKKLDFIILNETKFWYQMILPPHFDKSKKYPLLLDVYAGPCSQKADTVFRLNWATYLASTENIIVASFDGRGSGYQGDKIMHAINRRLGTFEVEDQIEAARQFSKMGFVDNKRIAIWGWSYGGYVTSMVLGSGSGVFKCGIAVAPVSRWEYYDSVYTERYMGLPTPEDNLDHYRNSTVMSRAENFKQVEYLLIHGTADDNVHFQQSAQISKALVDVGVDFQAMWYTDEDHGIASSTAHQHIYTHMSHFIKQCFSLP
# assay explanation: SPR (Biacore), Fab
measured endpoint: ratio of the Kd of CM03 Fab to the Kd of individual clone
Provide a numeric answer; units are not to be included.

Fill in the blank: the reported ratio of the Kd of CM03 Fab to the Kd of individual clone of Fab X390 (X385 VH and X376 VL) (Fab, V domains shown, Fab made in E. coli) VH: EVQLVQSGGGVKQPGETLRLTCTASGFSLTTYGVHWVRQAPGKGLEWVGVIWGDGRTDYDAAFMSRVTISKDTSKSTAYLQMNSLRAEDTAVYYCMRNRHDWFDYWGQGTTVTVSS VL: DILMTQSPSSLSASPGDRVTISCRASQDIRNNLNWYQQKPGQAPRLLIYYSSNLHSGVPDRFSGSGSGTDFTLTISRLEPEDFAAYYCQQSIKLPLTFGSGTKVEIK is ____. 1.7

I would be grateful if you could share the reported ratio of the Kd of CM03 Fab to the Kd of individual clone for Fab X395 (X384 VH and X380 VL) (Fab, V domains shown, Fab made in E. coli) VH: EVQLVESGAGVKQPGGTLRLTCTASGFSLTTYGVHWVRQAPGKGLEWVGVIWGDGRTDYDAAFMSRVTISKDTSKSTVYLQMNSLRAEDTAVYYCMRNRHDWFDYWGQGTTVTVSS VL: EIEMTQSPSSLSVSAGERATISCSASQDIRNSLNWYQQKPGQAPRLLIYYSSNLHTGVPARFSGSGSGTDFTLTISRLEPEDVAIYYCQQSNKLPLTFGSGTKVEIK . 0.5

Return reported ratio of the Kd of CM03 Fab to the Kd of individual clone; argument: Fab X393 (X385 VH and X379 VL) (Fab, V domains shown, Fab made in E. coli) VH: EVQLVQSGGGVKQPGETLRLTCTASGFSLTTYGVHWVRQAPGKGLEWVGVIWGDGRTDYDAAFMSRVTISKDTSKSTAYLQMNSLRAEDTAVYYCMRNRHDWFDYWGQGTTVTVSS VL: DILLTQSPSSLSATPGERATITCRASQGIRNNLNWYQQKPGQAPRLLIYYSSNLQSGVPSRFSGSGSGTDFTLTISRLQPEDVAAYYCQQSIKLPFTFGSGTKVEIK 4.94

For Fab X392 (X384 VH and X379 VL) (Fab, V domains shown, Fab made in E. coli) VH: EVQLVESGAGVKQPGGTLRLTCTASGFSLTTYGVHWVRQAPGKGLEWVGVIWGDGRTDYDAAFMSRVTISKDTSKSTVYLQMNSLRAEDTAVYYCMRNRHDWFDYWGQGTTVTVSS VL: DILLTQSPSSLSATPGERATITCRASQGIRNNLNWYQQKPGQAPRLLIYYSSNLQSGVPSRFSGSGSGTDFTLTISRLQPEDVAAYYCQQSIKLPFTFGSGTKVEIK , what is its reported ratio of the Kd of CM03 Fab to the Kd of individual clone? 6.79
